I'd appreciate it if you could supply Percent Effect values for the items below.
system: Wolbachia pipientis; assay: Anti-Wolbachia Cell-Based Screen; format: functional; parameters: scale not given: in the data most compounds retested in dose-response had high values; conditions: 5 µM
About 13,000 (27%) of roughly 48,000 compounds showed an effect of 50% or more. Some of the results follow.
The answer is to be given in %; state only the numeric part.

stdin: Tell me the measured Percent Effect of COc1ccc2c(c1)CC(NCCCn1cc(C)cn1)CC2 (centres undefined) , please.
stdout: 28.69

stdin: # iterate: CCOC(=O)c1nnc2ccccc2c1N1CCOC(C)(C)C1
stdout: 7.014

stdin: Continue with O=C(CSCC1CC1)N1CCCN(c2ccc(F)cc2)CC1
stdout: 101.8

stdin: Thanks! And COC(=O)[C@H]1CN(C(=O)NC(C)C)CCN1C(=O)C1CCCCC1 ?
stdout: -4.407

stdin: What would you report for COc1cc(Br)cc(CNC2CCCNC2=O)c1O (centres undefined) ?
stdout: -10.61

stdin: Next up: O=C(NC1CCCC1)c1nc2c(o1)CN(C(=O)CO)C2
stdout: -3.342

stdin: Please answer likewise for CCOC(=O)N1CCC(Oc2ccc(C(F)(F)F)cn2)CC1
stdout: 91.75

stdin: Another molecule to check: CN(C)c1ccccc1C(=O)N1C[C@@H](CN2CCC(O)CC2)[C@@H](CO)C1
stdout: -115.2

stdin: Now consider CC(C)N1CCc2ncn(C(C)C)c2C1C(=O)NCCN1CCCC1 (centres undefined) .
stdout: -11.46

stdin: Check CCNC(=O)NC(C)(C)C(=O)NCc1cccc(N2CC=CC2)c1 too.
stdout: 1.796

stdin: Continue with O=C(CCNC(=O)c1ccccc1N1CCOCC1)NC1CCCC1
stdout: 3.858

stdin: Please give the result for Cc1cc(N2CCCN(C(=O)Cc3cc(F)cc(F)c3)CC2)ccn1 too.
stdout: -40.46

stdin: Same question for CC[C@H](C)[C@H](N)C(=O)N1CC(=O)c2sc(NC3CCCCC3)nc2C1 please.
stdout: 89.49

stdin: Same again, this time with CCOCC(=O)N1CCC(Oc2ccc(Cl)cn2)CC1
stdout: -5.53

stdin: Can you check CC(C)(C)NC(=O)N1CCC(Oc2ccc(C(F)(F)F)cn2)CC1 next?
stdout: 116.4

stdin: Same question for CCOCC(=O)N1CCC(Oc2ccc(C(F)(F)F)cn2)CC1 please.
stdout: 5.97

stdin: // same read-out, input: CC(C)n1nc2c(cc1=O)CN(Cc1nc(-c3ccoc3)no1)CC2
stdout: 17.12

stdin: And for OCCn1ncc2c1CN(CC1CCOc3ccccc3C1)C2 (centres undefined) ?
stdout: 4.778

stdin: Further, for CC(C)NC(=O)N1CC(=O)c2sc(NC3CCCCC3)nc2C1 ?
stdout: 121.6

###

test system: Wolbachia pipientis; experiment: Anti-Wolbachia Cell-Based Screen; format: functional; parameters: scale not given: in the data most compounds retested in dose-response had high values; details: 5 µM
The campaign covered roughly 48,000 compounds. About 13,000 (27%) showed an effect of 50% or more. This is one part of the list.
metric.name: Percent Effect
Record the result as number plus unit.

stdin: What value of Percent Effect has been recorded for this entry: CCOC1CC2(CCN(Cc3cccn3C)CC2)C1.O=C(O)C(F)(F)F
stdout: 0.1287%

stdin: Try this compound too: CC(C)NC(=O)[C@@H]1CN(C)C[C@]12COc1ccc(F)cc1C2=O
stdout: 126.3%

stdin: Now consider Cc1nc(CN2C(=O)CCC23CCN(Cc2cccn2C)CC3)cs1.O=C(O)C(F)(F)F.O=C(O)C(F)(F)F and answer again.
stdout: 110.4%

stdin: Item: CC(C)NC(=O)C1CN(C(=O)c2ccc(F)cc2)CC12CCOCC2 (centres undefined)
stdout: 19.27%

stdin: CNC(=O)N1Cc2cc(F)ccc2C2(CCN(C)CC2)C1.Cl , same question.
stdout: 3.324%

stdin: What about this compound? CN1CCN(C(=O)[C@@H]2CN(C)C[C@]23COc2ccc(F)cc2C3=O)CC1
stdout: 67.23%

stdin: Thanks! And CN1C[C@@H](C(=O)NC2CCCC2)[C@@]2(COc3ccc(F)cc3C2=O)C1 ?
stdout: 83.49%

stdin: What do we get for Cc1ccc(-c2noc(CN3CCOC(CN(C)C)C3)n2)cc1F (centres undefined) ?
stdout: -11.04%

stdin: Thanks! And Cc1nc(CN2C(=O)CCC23CCN(Cc2ccccn2)CC3)cs1.O=C(O)C(F)(F)F.O=C(O)C(F)(F)F ?
stdout: 113.7%
